target: cDNA-expressed human hepatic CYP3A4 (Homo sapiens (Human), UniProt P08684); assay: Measurement of CYP (IC50 of P450 CYP3A4), BFC substrate; type: in vitro ADME; settings: 20 minutes
Sequence (P08684 whole entry): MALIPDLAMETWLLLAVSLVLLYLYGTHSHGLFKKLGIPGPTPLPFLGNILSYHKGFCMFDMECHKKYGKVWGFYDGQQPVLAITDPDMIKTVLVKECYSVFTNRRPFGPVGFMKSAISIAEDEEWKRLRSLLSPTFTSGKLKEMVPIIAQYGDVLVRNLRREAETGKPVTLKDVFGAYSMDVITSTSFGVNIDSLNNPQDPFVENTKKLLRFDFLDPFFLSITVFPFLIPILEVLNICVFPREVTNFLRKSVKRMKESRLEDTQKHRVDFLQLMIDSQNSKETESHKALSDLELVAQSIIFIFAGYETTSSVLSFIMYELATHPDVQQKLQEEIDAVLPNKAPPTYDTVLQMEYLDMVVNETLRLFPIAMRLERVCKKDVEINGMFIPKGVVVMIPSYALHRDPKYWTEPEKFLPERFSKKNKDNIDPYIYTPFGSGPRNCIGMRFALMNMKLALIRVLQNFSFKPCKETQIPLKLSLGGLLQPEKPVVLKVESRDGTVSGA
pIC50: −log10 of the molar value.
propertyLabel: pIC50

compound=C=CCN1CC(=O)N2[C@@H](Cc3ccc(O)cc3)C(=O)N(Cc3cccc4c(C(=O)N5CCN(CCOC)CC5)cn(C)c34)C[C@@H]2N1C(=O)NCc1ccccc1 propertylabel=pIC50 measuredresult=5.04
compound=C=CCN1CC(=O)N2[C@@H](Cc3ccc(O)cc3)C(=O)N(Cc3cccc4c(C(=O)Nc5ccc(N6CCN(C7CCCC7)CC6)nc5)cn(C)c34)C[C@@H]2N1C(=O)NCc1ccccc1 propertylabel=pIC50 measuredresult=4.76
compound=C=CCN1CC(=O)N2[C@@H](Cc3ccc(O)cc3)C(=O)N(Cc3cccc4c(-c5ccc(C(=O)Nc6ccc(N7CCN(C)CC7)cc6)cc5)cn(C)c34)C[C@@H]2N1C(=O)NCc1ccccc1 propertylabel=pIC50 measuredresult=5.15
compound=C=CCN1CC(=O)N2[C@@H](Cc3ccc(O)cc3)C(=O)N(Cc3cccc4c(-c5ccc(C(=O)Nc6ccccc6)cc5)cn(C)c34)C[C@@H]2N1C(=O)NCc1ccccc1 propertylabel=pIC50 measuredresult=5.12

A = C=CCN1CC(=O)N2C(Cc3ccc(O)cc3)C(=O)N(Cc3cccc4c(C(=O)Nc5ccc(N6CCN(C7CC7)CC6)nc5)cn(C)c34)CC2N1C(=O)NCc1ccccc1 (stereo not shown)
B = C=CCN1CC(=O)N2C(CN(Cc3cccc4c(C(=O)Nc5ccc(N6CCOCC6)nc5)cn(C)c34)C(=O)[C@@H]2Cc2ccc(O)cc2)N1C(=O)NCc1ccccc1 (stereo partly shown)
C = C=CCN1CC(=O)N2C(Cc3ccc(O)cc3)C(=O)N(Cc3cccc4c(C(=O)Nc5ccc(NCCN6CCCCC6)nc5)cn(C)c34)CC2N1C(=O)NCc1ccccc1 (stereo not shown)
D = C=CCN1CC(=O)N2[C@@H](Cc3ccc(O)cc3)C(=O)N(Cc3cccc4c(C(=O)Nc5ccc(N6CCCN(C)CC6)nc5)cn(C)c34)C[C@@H]2N1C(=O)NCc1ccccc1
Request: Falling order of pIC50, please. Form field (ranking): labels in requested order.
Result: C, A, D, B
(C: 5.60, A: 5.16, D: 4.95, B: 4.68)

* * *

tested on: MV-4-11 (human, Acute Myeloid Leukemia cell line) cells; experiment: Cell growth inhibition assay, GI50 of MV-4-11; assay type: cell-based; settings: Homo sapiens, MV4-11, 72 h, MV-4-11 cells
propertyLabel: GI50 (nM)

compound="C=CCN1CC(=O)N2[C@@H](Cc3ccc(O)cc3)C(=O)N(Cc3cccc4c(-c5ccc(C(=O)Nc6ccc(N7CCN(C)CC7)cc6)cc5)cn(C)c34)C[C@@H]2N1C(=O)NCc1ccccc1 [Compound D-11]" propertylabel=GI50 measuredresult=1.8

1 = C=CCN1CC(=O)N2C(CN(Cc3cccc4c(C(=O)Nc5ccc(N6CCNCC6)nc5)cn(C)c34)C(=O)[C@@H]2Cc2ccc(O)cc2)N1C(=O)NCc1ccccc1 (some centres unmarked) [Compound G-39]
2 = C=CCN1CC(=O)N2[C@@H](Cc3ccc(O)cc3)C(=O)N(Cc3cccc4c(-c5ccc(C(=O)Nc6cccc(OC)c6)cc5)cn(C)c34)C[C@@H]2N1C(=O)NCc1ccccc1 [Compound D-21]
3 = C=CCN1CC(=O)N2[C@@H](Cc3ccc(O)cc3)C(=O)N(Cc3cccc4c(-c5ccc(NC(=O)N6CC(N7CCOCC7)C6)cc5)cn(C)c34)C[C@@H]2N1C(=O)NCc1ccccc1 [Compound D-66]
4 = C=CCN1CC(=O)N2[C@@H](Cc3ccc(O)cc3)C(=O)N(Cc3cccc4c(-c5ccc(NC(=O)c6ccccc6)cc5)cn(C)c34)C[C@@H]2N1C(=O)NCc1ccccc1 [Compound D-48]
Request: Write the entries in order, lowest recorded GI50 first. Form field (ranking): labels in requested order.
Result: 3, 4, 2, 1
